Every entry's value here was drawn from patent US20240301067A1.

study-target: T1, Mouse PD-1 extracellular domain, hFc tag (mouse, UniProt Q02242 25-169)
T1 construct: extracellular domain; also called mPro1.ECD.hFc; not shown: human Fc tag at C-terminus
T1 sequence (looked up): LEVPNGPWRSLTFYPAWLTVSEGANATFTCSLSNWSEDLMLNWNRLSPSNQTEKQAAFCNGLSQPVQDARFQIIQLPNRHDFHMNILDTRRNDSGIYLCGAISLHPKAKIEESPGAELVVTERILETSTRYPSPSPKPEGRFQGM
experiment-summary: SPR Biacore 8K; PD-1-hFc captured on anti-human Fc chip, VHH injected; 1:1 fit
readout-kind: koff (s⁻¹)

AP17R1-2H2-Z1-R1-30D3 (VHH, not shown: his- and c-Myc-tag from vector pETbac) VHH: QVQLVESGGGVVQPGGSLRLSCAASDSIDSLVNMGWYRQAPGKQRELVALIANYITHYADFVKGRFTISRDNSKNTLYLQMNSLRAEDTAVYYCYARNIIEDYWGQGTLVTVSS :: 0.0118
AP17R1-2H2-Z1-R1-29B6 (VHH, not shown: his- and c-Myc-tag from vector pETbac) VHH: QVQLVESGGGVVQPGGSLRLSCAASDSIDSLVNMGWYRQAPGKQRELVALIANYITHYADFVKGRFTISRDNSKNTLYLQMNSLRAEDTAVYYCYARNIYVDYWGQGTLVTVSS :: 0.0108
AP17R1-2H2-Z1-R1-27A2 (VHH, not shown: his- and c-Myc-tag from vector pETbac) VHH: QVQLVESGGGVVQPGGSLRLSCAASDSIDSLVNMGWYRQAPGKQRELVALIANYITHYADFVKGRFTISRDNSKNTLYLQMNSLRAEDTAVYYCYARSIIVDYWGQGTLVTVSS :: 0.00894
AP17R1-2H2-Z1 (VHH, also called the humanized AP17R1-2H2; not shown: his- and c-Myc-tag from vector pETbac) VHH: QVQLVESGGGVVQPGGSLRLSCAASDSIDSLVNMGWYRQAPGKQRELVALIANYITHYADFVKGRFTISRDNSKNTLYLQMNSLRAEDTAVYYCYARNIIVDYWGQGTLVTVSS :: 0.0136
